FYI, the data here is from patent US20030068675.

Molecular target: T1, ZFP SBS#1376 (synthetic)
T1 chain: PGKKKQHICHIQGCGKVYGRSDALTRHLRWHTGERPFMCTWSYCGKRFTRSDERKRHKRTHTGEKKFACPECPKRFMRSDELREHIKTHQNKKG
Assay: EMSA
Conditions: tags: MBP fusion
metric: Kd (nM)
Give bare numbers, in nM.

The binder listed as CCGGCGGTG (dsDNA) DNA 1: CCGGCGGTG DNA 2: CACCGCCGG shows Kd equal to 0.858
